Collected EC50 values appear next to each entry.
Study system: recombinant full-length (fl)Tau aggregates (longest isoform of human Tau, 2N4R; 441 amino acids) (Homo sapiens)
Construct: 35 μM of recombinant full-length (fl)Tau in PBS were aggregated for 24 hours
Sequence (P10636 1-441 isoform P10636-8): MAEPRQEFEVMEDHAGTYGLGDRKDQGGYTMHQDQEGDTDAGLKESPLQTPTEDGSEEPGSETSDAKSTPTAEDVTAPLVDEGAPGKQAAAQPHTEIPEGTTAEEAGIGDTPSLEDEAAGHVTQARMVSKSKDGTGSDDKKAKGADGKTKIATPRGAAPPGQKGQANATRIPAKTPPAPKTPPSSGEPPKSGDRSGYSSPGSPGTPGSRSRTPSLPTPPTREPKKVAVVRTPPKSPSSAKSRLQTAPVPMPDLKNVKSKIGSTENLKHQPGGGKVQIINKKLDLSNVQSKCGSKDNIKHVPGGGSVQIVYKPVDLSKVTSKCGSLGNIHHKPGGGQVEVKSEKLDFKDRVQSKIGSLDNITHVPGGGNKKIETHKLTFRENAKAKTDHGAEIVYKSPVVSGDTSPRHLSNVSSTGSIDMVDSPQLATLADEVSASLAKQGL
Experimental details: Full-length Tau (flTau) disaggregation assay by Thioflavin T (ThT)
Condition: ThT fluorescence; 2 μM flTau aggregates, 30 minutes at RT
Counter-ions that a name gives are not always drawn.

CCn1c2c(c3ccccc31)CCN(c1ccc(N3CCOCC3)nc1)C2 [Example 123 HCl]
< 10 µM
Cn1c2c(c3cccnc31)CCN(c1ccc(N3CCOCC3)nc1)C2 [Example 105 HCl]
25 to 50 µM
Cn1c2c(c3ccccc31)CCN(c1ccc(N3CCOCC3)cn1)C2 [Example 45 HCl]
< 10 µM
CN(C)c1nc2cc(N3CCc4c(n(C)c5ccc(F)cc45)C3)ccc2o1
< 10 µM

Request: Return EC50 for the following molecule: COc1ccc2c(c1)c1c(n2C)CN(c2ccc3nc(N(C)C)sc3c2)CC1
Result: < 10 µM

Request: Look up and report measured EC50 for this entry: c1ccc2c3c([nH]c2c1)CN(c1ccc(N2C[C@@H]4C[C@H]2CO4)nc1)CC3 [Example 86 HCl]
Result: < 10 µM

Request: Input Cn1c2c(c3ccc(F)cc31)CCN(c1ccc3nc(N4CCOCC4)sc3c1)C2 , output reported EC50.
Result: < 10 µM

Request: Tell me EC50 reported for Cn1c2c(c3ccccc31)CCN(c1ccc(N3CCOCC3)nc1)C2 [Example 46 HCl]
Result: 10 to 25 µM

Request: Output measured EC50 for this item: Cn1c2c(c3ccc(F)cc31)CCN(c1ccc(N3CCOCC3)cn1)C2 [Example 111 HCl]
Result: < 10 µM

Request: In one line, give reported EC50 of the entry Fc1ccc2c3c([nH]c2c1)CN(c1ccc(N2CCOCC2)nc1)CC3 [Example 108 HCl] .
Result: < 10 µM

Request: Read off the recorded EC50 for Cn1c2c(c3ccccc31)CCN(c1ccc3nc(N4CCOCC4)sc3c1)C2
Result: < 10 µM

Request: Hello, please tell me recorded EC50 for this one: c1ccc2c3c([nH]c2c1)CN(c1ccc(N2CCOCC2)nc1)CC3 [Example 44 HCl]
Result: < 10 µM

Request: Provide only the value of recorded EC50 for c1ccc2c3c([nH]c2c1)CN(c1ccc(N2CCC4(CC2)COC4)nc1)CC3 [Example 83 HCl]
Result: 25 to 50 µM

Request: Recall and state the measured EC50 for c1ccc2c3c([nH]c2c1)CN(c1ccc(N2CC4(CCOCC4)C2)nc1)CC3 [Example 80 HCl] .
Result: 10 to 25 µM
